Ref: patent US8778923B2

Entries and their pEC50 values follow.
Target: GLP-1R (Homo sapiens)
Sequence (P43220 24-463): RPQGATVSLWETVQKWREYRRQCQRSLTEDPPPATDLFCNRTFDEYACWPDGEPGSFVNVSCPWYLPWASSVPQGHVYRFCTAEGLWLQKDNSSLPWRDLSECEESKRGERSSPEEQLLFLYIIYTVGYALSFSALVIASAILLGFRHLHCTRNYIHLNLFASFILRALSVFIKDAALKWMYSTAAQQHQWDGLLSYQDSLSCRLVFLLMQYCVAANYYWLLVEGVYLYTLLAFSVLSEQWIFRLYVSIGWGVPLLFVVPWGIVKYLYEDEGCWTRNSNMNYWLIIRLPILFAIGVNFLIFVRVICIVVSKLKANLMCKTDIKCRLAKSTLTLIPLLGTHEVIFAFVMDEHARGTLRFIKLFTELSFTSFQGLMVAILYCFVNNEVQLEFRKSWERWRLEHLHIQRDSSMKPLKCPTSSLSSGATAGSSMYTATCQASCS
Sequence (P01275 100-127 partner limits assumed): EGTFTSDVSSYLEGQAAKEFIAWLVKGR
Experiment: EC20 GLP-1(9-36) PAM cAMP assay: dose response of compound in the presence of fixed concentration of GLP-1(9-36)
Conditions: GLP-1R CRE-bla CHO-K1 cells, compound dose response in presence of fixed concentration of GLP-1(9-36)
pEC50: −log10 of the molar value.

Before answering, review these 6 worked examples.
Entry CCCCCCCOc1ccc(-c2cnc(-c3ccc(C[C@H](NC(=O)c4ccc(C(C)(C)C)cc4)C(=O)NCC(=O)Nc4nn[nH]n4)cc3)nc2)cc1 : reported pEC50 = ?
5.60 to 6.10

Entry CC(C)c1ccc(-c2cnc(-c3ccc(C[C@H](NC(=O)c4ccc(C(C)(C)C)s4)C(=O)O)cc3)nc2)cc1 : reported pEC50 = ?
5.60 to 6.10

Entry CCCc1ccc(-c2nc(-c3ccc(C[C@H](NC(=O)c4ccc(C(C)(C)C)cc4)C(=O)O)cc3)no2)cc1 : reported pEC50 = ?
5.60 to 6.10

Entry CCCCCCCOc1ccc(-c2cnc(-c3ccc(C[C@@H](NC(=O)c4ccc(C(C)(C)C)s4)C(=O)N[C@H](C)C(=O)O)cc3)nc2)cc1 : reported pEC50 = ?
> 6.10

Entry CC(C)(C)c1ccc(C(=O)N[C@@H](CCc2ccc(-c3noc(-c4ccc(N5CCCCC5)cc4)n3)cc2)C(=O)O)cc1 : reported pEC50 = ?
5.30 to 5.60

Entry CCCCCCCOc1ccc(-c2cnc(-c3ccc(C[C@H](NC(=O)c4ccc(OCC)cc4)C(=O)O)cc3)nc2)cc1 : reported pEC50 = ?
5.60 to 6.10

// next item, pEC50 requested
Entry CCCCCCCOc1ccc(-c2cnc(-c3ccc(C[C@H](NC(=O)c4ccc(S(=O)(=O)CC)cc4)C(=O)O)cc3)nc2)cc1 : reported pEC50 = ?
5.60 to 6.10
